SYSTEM NAME: Purified recombinant ADAMTS-7 (rat prodomain/human catalytic domain, SEQ ID No. 01 or 02) (Homo sapiens)
Construct: rat ADAMTS-7 signal peptide + prodomain (rat 1-217, Q1EHB3) (N); 2xStrep tag (C); 6xHis tag (C)
Sequence (Q9UKP4 237-537): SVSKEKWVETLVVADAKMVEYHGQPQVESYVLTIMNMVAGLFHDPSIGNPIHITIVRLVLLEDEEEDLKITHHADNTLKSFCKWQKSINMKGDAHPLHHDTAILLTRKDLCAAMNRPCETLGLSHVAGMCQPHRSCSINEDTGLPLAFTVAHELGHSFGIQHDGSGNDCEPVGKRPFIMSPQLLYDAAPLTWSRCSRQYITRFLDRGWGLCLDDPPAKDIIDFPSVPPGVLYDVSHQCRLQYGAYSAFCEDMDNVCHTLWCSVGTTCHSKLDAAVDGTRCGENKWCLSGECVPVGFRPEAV
PROTOCOL: Assay for ADAMTS-7 enzymatic activity (FRET substrate cleavage)
PARTICULARS: FRET substrate SEQ ID No. 11, 120 min at 32° C.; read-out: ADAMTS7-IC50
REPORTED ENDPOINT: IC50 (nM)

CCCC1(CNC(=O)c2cnn(-c3ccc(F)cc3)n2)NC(=O)NC1=O (racemic) [Example 65]
170
Cn1ccnc1C1(CNC(=O)c2cnn(-c3cc(F)c(F)c(F)c3)n2)NC(=O)NC1=O (stereo not drawn) [Example 146]
3
O=C1NC(=O)C(CNC(=O)c2cnn(-c3ccccc3)n2)(C2CCCOC2)N1 (single isomer, unassigned; dia2) [Example 85]
250
CCCC1(CNC(=O)c2cnn(-c3ccc(F)cc3)n2)NC(=O)NC1=O (stereo not drawn) [Example 73]
60
O=C1NC(=O)C(CNC(=O)c2cnn(-c3ccc(F)cc3)n2)(c2ncsc2C(F)(F)F)N1 (racemic) [Example 135]
48

P. O=C1NC(=O)[C@](CNC(=O)c2cnn(-c3ccc(F)cc3Cl)n2)(C2CC2)N1 [Example 151]
Q. CC(C)C1(CNC(=O)c2cnn(-c3ccc(F)c(F)c3)n2)NC(=O)NC1=O (single isomer, unassigned; ent-2) [Example 123]
Of the two listed items, P and Q , which carries the larger IC50 figure? Lab note: record the label of whichever item you select.
P
(P: 320 nM, Q: 7 nM)

1. O=C1NC(=O)C(CNC(=O)c2cnn(-c3ccc(Cl)cc3)n2)(C2CCC2)N1 (single isomer, unassigned; ent-2) [Example 95]
2. CC(C)C1(CNC(=O)c2cnn(-c3ccc(F)c(Cl)c3)n2)NC(=O)NC1=O (single isomer, unassigned; ent-2) [Example 126]
Select one. Lower IC50: 1 or 2 Lab note: record the label of whichever item you select.
1

###

SYSTEM NAME: Purified recombinant ADAMTS-7 (rat prodomain/human catalytic domain, SEQ ID No. 01 or 02) (Homo sapiens, UniProt Q9UKP4)
Construct: rat ADAMTS-7 signal peptide + prodomain (rat 1-217, Q1EHB3) (N); 2xStrep tag (C); 6xHis tag (C)
PROTOCOL: Assay for ADAMTS-7 enzymatic activity (FRET substrate cleavage)
PARTICULARS: FRET substrate SEQ ID No. 11, 120 min at 32° C.; read-out: ADAMTS7-IC50
Description: Purified recombinant ADAMTS-7 (as of SEQ ID No. 01 or SEQ ID No. 02) was diluted in reaction buffer (20 mM HEPES pH 8.0, 150 mM NaCl, 5 mM CaCl2, 0.004% Brij, 10 μM ZnCl2) fora concentration of approximately 20 nM. […] The increase of fluorescence intensity was measured in appropriate fluorescence plate reader (e.g. TECAN Ultra) using excitation wavelength of 485 nm and emission wavelength of 520 nm. […]
pIC50: −log10 of the molar value.
REPORTED ENDPOINT: pIC50

Would you please look over these solved cases?
CC(C)(C)C1(CNC(=O)c2cnn(-c3ccc(C(F)(F)F)c(F)c3)n2)NC(=O)NC1=O (racemic)
6.68
C[C@H](NC(=O)c1cnn(-c2ccccc2)n1)C1(C2CC2)NC(=O)NC1=O (some centres unmarked)
6.01

I. Cc1scnc1C1(CNC(=O)c2cnn(-c3ccc(F)cc3)n2)NC(=O)NC1=O (single isomer, unassigned; ent-2) [Example 103]
II. CC(CO)C1(CNC(=O)c2cnn(-c3ccccc3)n2)NC(=O)NC1=O (centres unmarked)
III. CC(C)C1(CNC(=O)c2cnn(-c3ccc(F)cc3)n2)NC(=O)NC1=O (centres unmarked) [Example 76]
Would you mind ranking these molecules by ascending pIC50? Answer by naming the labels in the order asked.
II, III, I

P. O=C1NC(=O)C(CNC(=O)c2nc(-c3ccccc3)no2)(CC2CC2)N1 (centres unmarked)
Q. O=C1NC(=O)[C@](CNC(=O)c2cnn(-c3ccccc3)c2)(C2CC2)N1
R. CC(C)C1(CNC(=O)c2cnn(-c3cc(F)c(F)c(F)c3)n2)NC(=O)NC1=O (centres unmarked) [Example 117]
Rank the 3 molecules: largest pIC50 first, smallest last. Answer by naming the labels in the order asked.
R, Q, P
